Source: PubChem BioAssay

System: Fibrinogen (Alexa647-labelled)
Test: fibrinogen binders on compound microarrays, profiling panel, artefact control for SMM control-protein annotation, biochemical, small-molecule microarray, 635/667 nm fluorescence (AID 1131);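 note: z-score merges 667 nm fluorescence with per-spot signal-to-noise over triplicate slides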
Conditions: fibrinogen-A647 binding fluorescence, higher = more signal
Exercise: state measured composite z-score for each of the molecules provided.
Answers are plain numbers.

Worked cases, answers included:
• C=CCOC(=O)[C@H]1[C@@H]2C(=O)O[C@@H](c3ccccc3)[C@@H](c3ccccc3)N2[C@@H](c2ccc(OCCOC(=O)[C@H]3C[C@H]4C(=O)N[C@@H](CCCCN(C)C)C(=O)N4[C@H]3c3ccc(O)cc3)cc2)[C@]12C(=O)Nc1ccc(I)cc12 = 0.991
• C=C(C(=O)CC[C@@H](OC(=O)c1cccnc1)c1ccccc1OCCO)C(C)C = 0.0673
• CCCC[C@H]1OB(O)C[C@H]2C1=C(COC)Cn1c(=O)n(-c3ccccc3)c(=O)n12 = 0.4
• CC(C)C(=C=CC[C@@H](O)c1ccc(OCCO)cc1)C[C@@H](O)COCc1ccccc1 = 0.602

Quick request: composite z-score for each listed item, please.
1. C=CC1(C(=O)OC)CC=C(C(=O)OC)CC1 (stereo unspecified)
2. Cc1ccccc1C(O)C1C=CC2C(=O)N(c3ccccc3)C(=O)C2N1Nc1ccc(C(C)C)cc1 (stereo unspecified)
3. COc1cc(COC(C)=O)ccc1OC(C)=O
4. COc1cc2c(cc1O)C(C1CC1)N(Cc1sc3ccccc3c1Cl)CC2 (stereo unspecified)
5. CCCCCN1CC=CC23O[C@@H]4C=CCCOC(=O)C4[C@H]2C(=O)N(CCCCCO)[C@@H]3C1=O (stereo partly specified)
6. Cc1ccc(S[C@]2(C(=O)NC3CC3)CC(=O)N(Cc3ccccc3)[C@@H]2c2ccc(CO)cc2I)cc1
7. [N-]=[N+]=Nc1ccccc1[C@H]1OC(c2ccc(OCCCO)cc2)=N[C@@]1(CCS(=O)(=O)c1ccccc1)C(N)=O

A.
[0.862, 0.997, 0.0038, 0.762, 0.302, -0.394, 0.938]
